List of IC50 tested on UniProt:Q9UM73.
attribute-measured: IC50 (nM)

> print(dat)
                                   compound  experimental.value
1  COc1ccc(NC(=O)C2(NC(=O)c3cc(C(C)C)c(O)cc3O)CC2)cc1Nc1ncc(Cl)c(Nc2ccccc2S(=O)(=O)C(C)C)n1                 130

[A] COc1ccc(Nc2ncc(Cl)c(Nc3ccccc3S(=O)(=O)C(C)C)n2)cc1NC(=O)CNC(=O)c1cc(C(C)C)c(O)cc1O
[B] CC(C)c1cc(C(=O)NCC(=O)Nc2cccc(Nc3ncc(Cl)c(Nc4ccccc4S(=O)(=O)C(C)C)n3)c2)c(O)cc1O
[C] COc1ccc(NC(=O)CNC(=O)c2cc(C(C)C)c(O)cc2OC)cc1Nc1ncc(Cl)c(Nc2ccccc2S(=O)(=O)C(C)C)n1
[D] COc1ccc(NC(=O)C(Cc2ccccc2)NC(=O)c2cc(C(C)C)c(O)cc2O)cc1Nc1ncc(Cl)c(Nc2ccccc2S(=O)(=O)C(C)C)n1 (stereo unspecified)
Task item: # rank_down: sort by IC50, max first State the ranking by listing the labels in the requested order.
Reply: C, D, A, B

###

molecular target: ALK tyrosine kinase receptor (Homo sapiens, UniProt Q9UM73, L1152R)
Sequence (Q9UM73 19-1620 L1152R limits assumed): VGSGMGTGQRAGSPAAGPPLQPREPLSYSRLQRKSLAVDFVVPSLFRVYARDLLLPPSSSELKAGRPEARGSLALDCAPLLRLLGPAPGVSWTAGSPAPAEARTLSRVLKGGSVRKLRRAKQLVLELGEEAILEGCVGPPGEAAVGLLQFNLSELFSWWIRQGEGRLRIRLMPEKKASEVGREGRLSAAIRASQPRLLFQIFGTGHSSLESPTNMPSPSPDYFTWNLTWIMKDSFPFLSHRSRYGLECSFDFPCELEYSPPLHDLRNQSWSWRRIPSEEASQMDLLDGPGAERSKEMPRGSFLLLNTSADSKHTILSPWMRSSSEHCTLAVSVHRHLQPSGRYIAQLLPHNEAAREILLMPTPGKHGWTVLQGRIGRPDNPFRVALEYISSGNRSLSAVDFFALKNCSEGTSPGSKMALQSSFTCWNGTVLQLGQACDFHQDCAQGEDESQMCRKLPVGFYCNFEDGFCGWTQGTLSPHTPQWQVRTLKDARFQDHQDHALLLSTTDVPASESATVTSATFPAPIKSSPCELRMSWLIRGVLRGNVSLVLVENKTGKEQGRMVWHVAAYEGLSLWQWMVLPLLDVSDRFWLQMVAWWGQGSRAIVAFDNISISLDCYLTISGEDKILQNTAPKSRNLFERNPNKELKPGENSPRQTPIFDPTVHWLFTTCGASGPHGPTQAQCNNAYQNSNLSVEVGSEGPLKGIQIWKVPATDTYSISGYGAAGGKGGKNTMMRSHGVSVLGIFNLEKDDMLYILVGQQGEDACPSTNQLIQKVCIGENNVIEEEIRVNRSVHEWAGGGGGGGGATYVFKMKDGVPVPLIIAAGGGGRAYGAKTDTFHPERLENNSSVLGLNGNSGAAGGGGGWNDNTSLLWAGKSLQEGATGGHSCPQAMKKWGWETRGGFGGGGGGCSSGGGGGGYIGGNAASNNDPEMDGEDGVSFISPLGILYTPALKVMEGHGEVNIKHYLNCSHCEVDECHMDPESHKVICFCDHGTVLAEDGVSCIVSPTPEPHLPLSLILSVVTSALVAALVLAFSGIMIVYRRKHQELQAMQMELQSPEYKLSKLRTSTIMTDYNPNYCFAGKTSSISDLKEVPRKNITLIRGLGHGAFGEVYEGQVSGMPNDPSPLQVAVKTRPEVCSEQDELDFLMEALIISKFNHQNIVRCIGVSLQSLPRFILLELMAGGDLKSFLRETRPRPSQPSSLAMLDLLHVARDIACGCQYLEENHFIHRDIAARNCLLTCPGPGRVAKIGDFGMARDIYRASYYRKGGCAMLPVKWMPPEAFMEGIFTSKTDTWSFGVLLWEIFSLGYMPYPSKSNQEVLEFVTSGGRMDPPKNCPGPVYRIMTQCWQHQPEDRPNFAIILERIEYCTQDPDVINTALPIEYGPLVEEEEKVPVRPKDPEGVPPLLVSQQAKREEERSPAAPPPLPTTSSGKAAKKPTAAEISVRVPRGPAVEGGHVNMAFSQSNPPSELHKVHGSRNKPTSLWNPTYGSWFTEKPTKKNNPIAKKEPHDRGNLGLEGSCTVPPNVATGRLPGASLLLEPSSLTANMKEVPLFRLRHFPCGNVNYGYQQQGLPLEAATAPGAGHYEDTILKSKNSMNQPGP
attribute-measured: pIC50
# pIC50 = -log10(concentration in molar units)

Task item: Under ALK tyrosine kinase receptor (Homo sapiens, UniProt Q9UM73, L1152R): pIC50 value of COc1ccc(NC(=O)CNC(=O)c2cc(C(C)C)c(O)cc2O)cc1Nc1ncc(Cl)c(Nc2ccccc2S(=O)(=O)C(C)C)n1 ?
Reply: 7.97

###

system: BaF3; assay: cells; conditions: Mus musculus, BaF3, 72 h
pIC50: −log10 of the molar value.
attribute-measured: pIC50

[1] Cc1cc(Nc2ncc(Cl)c(Nc3ccccc3S(=O)(=O)C(C)C)n2)c(OC(C)C)cc1C1CCNCC1 [CERITINIB]
[2] C[C@H]1Oc2cc(cnc2N)-c2c(nn(C)c2C#N)CN(C)C(=O)c2ccc(F)cc21 [LORLATINIB]
Task item: // compare: 1 vs 2 , metric pIC50, want the smaller Select an item and report its label.
Reply: 1
(1: 6.14, 2: 6.70)

###

target: ALK tyrosine kinase receptor (Homo sapiens, UniProt Q9UM73, S1206Y)
Sequence (Q9UM73 19-1620 S1206Y limits assumed): as the sequence (Q9UM73 19-1620 L1152R limits assumed) above, with R1134L, S1188Y counted along it
attribute-measured: pIC50
# pIC50: negative log10 of molar concentration; output just the value

Task item: Form field - read-out: pIC50; system: ALK tyrosine kinase receptor (Homo sapiens, UniProt Q9UM73, S1206Y); submitted item: COc1ccc(NC(=O)CNC(=O)c2cc(C(C)C)c(O)cc2O)cc1Nc1ncc(Cl)c(Nc2ccccc2S(=O)(=O)C(C)C)n1
Reply: 8.29
